Measured MIC, listed per entry for reference.
tested on: Mycoplasma hyopneumoniae S5972; test: MIC, broth-dilution microtiter test (Table X); format: cell-based; conditions: Mesomycoplasma hyopneumoniae, read-out: MIC
Measured Property: MIC (µg/mL)

{"Compound": "CCC1OC(=O)CC(O)C(C)C(OC2OC(C)C(O)C(N(C)C)C2O)C(CCN2CC=C(c3ccccc3)CC2)CC(C)C(=O)C=CC(C)=CC1COC1OC(C)C(O)C(OC)C1OC (centres unmarked) [Compound D26]", "Value Unit": "µg/mL", "Reported Measurement": 0.78}
{"Compound": "CCC1OC(=O)CC(O)C(C)C(OC2OC(C)C(O)C(N(C)C)C2O)C(CCN2CCCC3CCCCC32)CC(C)C(=O)C=CC(C)=CC1COC1OC(C)C(O)C(OC)C1OC (centres unmarked) [Compound D20]", "Value Unit": "µg/mL", "Reported Measurement": 0.78}
{"Compound": "CCC1OC(=O)CC(O)C(C)C(OC2OC(C)C(O)C(N(C)C)C2O)C(CCN2CCC(c3ccccc3)CC2)CC(C)C(=O)C=CC(C)=CC1COC1OC(C)C(O)C(OC)C1OC (centres unmarked) [Compound D4]", "Value Unit": "µg/mL", "Reported Measurement": 0.78}
{"Compound": "CCC1OC(=O)CC(O)C(C)C(OC2OC(C)C(O)C(N(C)C)C2O)C(CCN2CC3(C)CC2CC(C)(C)C3)CC(C)C(=O)C=CC(C)=CC1COC1OC(C)C(O)C(OC)C1OC (centres unmarked) [Compound D21]", "Value Unit": "µg/mL", "Reported Measurement": 0.195}
{"Compound": "CCC1OC(=O)CC(O)C(C)C(OC2OC(C)C(O)C(N(C)C)C2O)C(CCN2CCC3(CCCCC3)CC2)CC(C)C(=O)C=CC(C)=CC1COC1OC(C)C(O)C(OC)C1OC (centres unmarked) [Compound D43]", "Value Unit": "µg/mL", "Reported Measurement": 0.78}
